Examples of compounds with documented CI (Combination Index) follow.
Test system: OVCAR-8 ovarian adenocarcinoma cell line
Protocol summary: DIMSCAN cytotoxicity, fenretinide + L-threo-sphinganines 3:1 (Example B15)
Format: cell-based, human
Parameters: key: Chou-Talalay CI: <0.9 synergy, 0.9-1.1 additive, >1.1 antagonism
Condition summary: 4-HPR 3 μM + L-threo-sphinganine 1 μM, 96 h
Readout type: CI (Combination Index)

compound="CCCCCCCCCCCCCCC[C@H](O)[C@@H](N)CO [C18, (2S,3S)-2-amino-1,3-octadecanediol, reference compound]" readout_type="CI (Combination Index)" measurement=1.5
compound=CCCCCCCCCCCCCCCCC[C@H](O)[C@@H](N)CO readout_type="CI (Combination Index)" measurement=0.6
compound=CCCCCCCCCCC[C@H](O)[C@@H](N)CO readout_type="CI (Combination Index)" measurement=0.1
compound=CCCCCCCCCCCCCCCCCC[C@H](O)[C@@H](N)CO readout_type="CI (Combination Index)" measurement=0.1
compound=CCCCCCCCCCCCCCCC[C@H](O)[C@@H](N)CO readout_type="CI (Combination Index)" measurement=0.1

* * *

List of CI values.
System: PANC-1 pancreatic adenocarcinoma cell line
Protocol summary: DIMSCAN cytotoxicity, fenretinide + L-threo-sphinganines 3:1 (Example B18)
Format: cell-based, human
Condition summary: 4-HPR 9 μM + L-threo-sphinganine 3 μM
Readout type: CI

molecule=CCCCCCCCCCCCCCCCCC[C@H](O)[C@@H](N)CO readout_type=CI measurement=0.4
molecule=CCCCCCCCCCCCCC[C@H](O)[C@@H](N)CO readout_type=CI measurement=0.1
molecule=CCCCCCCCC[C@H](O)[C@@H](N)CO readout_type=CI measurement=0.2
molecule=CCCCCCCCCCC[C@H](O)[C@@H](N)CO readout_type=CI measurement=0.7
molecule="CCCCCCCCCCCCCCC[C@H](O)[C@@H](N)CO [C18, (2S,3S)-2-amino-1,3-octadecanediol, reference compound]" readout_type=CI measurement=1.5
molecule=CCCCCCCCCCCCCCCCC[C@H](O)[C@@H](N)CO readout_type=CI measurement=0.1
